Readings of fold change of affinity for the listed binders
Target: T1, Human CD137 ECD (human)
T1 construct: also called 4-1BB
T1 sequence (chain, as listed by the source limits assumed): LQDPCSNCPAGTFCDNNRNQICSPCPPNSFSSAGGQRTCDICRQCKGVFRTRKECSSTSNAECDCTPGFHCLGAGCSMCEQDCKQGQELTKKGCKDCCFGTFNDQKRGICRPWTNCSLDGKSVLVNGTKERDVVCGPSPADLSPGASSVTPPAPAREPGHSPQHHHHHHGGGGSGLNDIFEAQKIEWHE
Assay: SPR, vs parent H183/L072
// return the numeric value with its unit appended

Use these answered entries as a reference point.
* dBBDu183H F100gW / dBBDu072L (antibody, name in Kabat numbering, V domains shown, as m1, one VH change) VH: QVQLVESGGGLVQPGRSLRLSCAASGFTFSNAWMHWVRQAPGKGLEWVAQIKDKGNAYAAYYAPSVKGRFTISRDDSKNSIYLQMNSLKTEDTAVYYCHYVHYASASTVLPAWGVDAWGQGTTVTVSS VL: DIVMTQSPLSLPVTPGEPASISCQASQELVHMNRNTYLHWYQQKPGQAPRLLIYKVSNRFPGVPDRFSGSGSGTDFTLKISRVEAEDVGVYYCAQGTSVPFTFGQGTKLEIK | 0.6 fold
* dBBDu183H S99Q / dBBDu072L (antibody, name in Kabat numbering, V domains shown, as m1, one VH change) VH: QVQLVESGGGLVQPGRSLRLSCAASGFTFSNAWMHWVRQAPGKGLEWVAQIKDKGNAYAAYYAPSVKGRFTISRDDSKNSIYLQMNSLKTEDTAVYYCHYVHYAQASTVLPAFGVDAWGQGTTVTVSS VL: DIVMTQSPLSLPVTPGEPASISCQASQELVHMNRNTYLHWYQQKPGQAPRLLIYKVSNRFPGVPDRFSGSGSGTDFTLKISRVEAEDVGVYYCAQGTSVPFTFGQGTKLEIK | 0.6 fold

Query string: GET /values?readout=fold change of affinity&item= dBBDu183H G65W / dBBDu072L (antibody, name in Kabat numbering, V domains shown, as m1, one VH change) VH: QVQLVESGGGLVQPGRSLRLSCAASGFTFSNAWMHWVRQAPGKGLEWVAQIKDKGNAYAAYYAPSVKWRFTISRDDSKNSIYLQMNSLKTEDTAVYYCHYVHYASASTVLPAFGVDAWGQGTTVTVSS VL: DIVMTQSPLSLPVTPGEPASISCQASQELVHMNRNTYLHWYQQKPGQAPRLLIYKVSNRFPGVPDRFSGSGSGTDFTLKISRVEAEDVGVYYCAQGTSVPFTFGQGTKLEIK
Result string: 1.3 fold
